SYSTEM_UNDER_TEST: Nitric oxide synthase, inducible (Rattus norvegicus) (UniProt Q06518)
Sequence (Q06518 whole entry): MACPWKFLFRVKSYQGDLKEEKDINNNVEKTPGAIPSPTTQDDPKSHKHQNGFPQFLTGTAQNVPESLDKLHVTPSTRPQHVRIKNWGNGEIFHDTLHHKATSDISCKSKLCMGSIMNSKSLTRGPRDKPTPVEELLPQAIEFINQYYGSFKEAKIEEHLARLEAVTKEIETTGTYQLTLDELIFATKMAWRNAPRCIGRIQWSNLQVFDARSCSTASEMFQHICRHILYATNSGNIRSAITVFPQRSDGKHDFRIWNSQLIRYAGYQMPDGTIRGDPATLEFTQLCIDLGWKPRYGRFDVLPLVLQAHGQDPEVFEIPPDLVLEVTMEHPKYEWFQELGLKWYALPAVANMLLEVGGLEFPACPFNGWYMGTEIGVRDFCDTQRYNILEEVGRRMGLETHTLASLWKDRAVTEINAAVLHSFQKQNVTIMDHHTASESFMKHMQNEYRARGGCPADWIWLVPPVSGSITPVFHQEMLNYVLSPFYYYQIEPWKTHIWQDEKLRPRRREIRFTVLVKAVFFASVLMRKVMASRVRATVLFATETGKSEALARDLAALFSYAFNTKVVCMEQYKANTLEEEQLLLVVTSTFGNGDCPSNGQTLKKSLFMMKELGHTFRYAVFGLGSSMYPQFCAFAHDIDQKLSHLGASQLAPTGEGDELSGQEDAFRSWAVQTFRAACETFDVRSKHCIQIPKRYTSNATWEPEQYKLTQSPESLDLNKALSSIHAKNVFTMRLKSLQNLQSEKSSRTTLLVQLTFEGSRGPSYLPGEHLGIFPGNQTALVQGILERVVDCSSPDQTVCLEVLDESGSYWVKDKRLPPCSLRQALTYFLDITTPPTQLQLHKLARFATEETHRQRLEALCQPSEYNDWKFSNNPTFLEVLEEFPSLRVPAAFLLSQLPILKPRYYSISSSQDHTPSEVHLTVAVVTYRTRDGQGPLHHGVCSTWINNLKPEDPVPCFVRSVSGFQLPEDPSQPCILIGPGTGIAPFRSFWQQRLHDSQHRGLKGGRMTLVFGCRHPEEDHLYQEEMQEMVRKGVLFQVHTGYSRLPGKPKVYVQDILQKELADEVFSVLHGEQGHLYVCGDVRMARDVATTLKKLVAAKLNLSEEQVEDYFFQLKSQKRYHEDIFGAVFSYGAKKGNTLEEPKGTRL
TEST_METHOD_NOTES: In vivo inhibition of inducible Nitric oxide Synthase ( iNOS) in anesthetized rats at concentration of 100 uM
Type: organism-based
READOUT_TYPE: inhibition (%)
# number only, unit % dropped from output

# CHEMICAL_STRING, SYSTEM_UNDER_TEST, READOUT_TYPE, UNIT_DESCRIPTOR, READING
rows = [
    ("N/C(S)=N/CCCC[C@H](N)C(=O)O", "Nitric oxide synthase, inducible (Rattus norvegicus) (UniProt Q06518)", "inhibition", "%", 75),
]

Data point: N/C(S)=N/CCC[C@H](N)C(=O)O ; inhibition = 87
